Assay: Drug solubility in different release media (PBS with Tween 80 or SDS)
Assay type: physicochemical
Details: release media (PBS with Tween 80 or SDS), 37 °C, pH 7.4, aqueous with cosolvent or surfactant or cyclodextrin, thermodynamic from solid
Description: Mikkelsen, L. M., Enzyme solubility in liquid detergent and use of detergent composition. […] Crotts, G.; Park, T. G. Protein delivery from poly(lactic-co-glycolic acid) biodegradable microspheres: Release kinetics and stability issues. […] FDA. The solutions were centrifuged at 8000 rpm for 10 minutes, and a 1 ml aliquot was withdrawn, filtered through a 0.45 μm nylon membrane, and analyzed by HPLC.
experimental_readout: solubility at 48 h

1. CC(C)(C)CC(=O)OCC(=O)[C@@]12OC(C)(C)O[C@@H]1C[C@H]1[C@@H]3CCC4=CC(=O)C=C[C@]4(C)[C@@]3(F)[C@@H](O)C[C@@]12C [Triamcinolone hexacetonide, triamcinolone hexacetonide]: 37.9 µg/mL
2. COc1cc(/C=C/C(=O)CC(=O)/C=C/c2ccc(O)c(OC)c2)ccc1O [Curcumin, curcumin]: 45.6 µg/mL
3. CC1(C)O[C@@H]2C[C@H]3[C@@H]4CCC5=CC(=O)C=C[C@]5(C)[C@@]4(F)[C@@H](O)C[C@]3(C)[C@]2(C(=O)CO)O1 [Triamcinolone acetonide, triamcinolone acetonide]: 287 µg/mL
4. CC(=O)O[C@H]1C(=O)[C@@]2(C)[C@H]([C@H](OC(=O)c3ccccc3)[C@]3(O)C[C@H](OC(=O)[C@H](O)[C@@H](NC(=O)c4ccccc4)c4ccccc4)C(C)=C1C3(C)C)[C@]1(OC(C)=O)CO[C@@H]1C[C@@H]2O [Paclitaxel, paclitaxel]: 106 µg/mL

---

Recorded logP, one value per entry.
Experiment: logP (octanol-water partition) by shake tube method
Type: physicochemical
Details: read-out: Calculated LogP
experimental_readout: logP

1) CC(=O)O[C@H]1C(=O)[C@@]2(C)[C@H]([C@H](OC(=O)c3ccccc3)[C@]3(O)C[C@H](OC(=O)[C@H](O)[C@@H](NC(=O)c4ccccc4)c4ccccc4)C(C)=C1C3(C)C)[C@]1(OC(C)=O)CO[C@@H]1C[C@@H]2O: 2.7
2) CC1(C)O[C@@H]2C[C@H]3[C@@H]4CCC5=CC(=O)C=C[C@]5(C)[C@@]4(F)[C@@H](O)C[C@]3(C)[C@]2(C(=O)CO)O1 [Triamcinolone acetonide, triamcinolone acetonide]: 2.3
